- ASSAY EXPLANATION: Pharmacokinetic test in SD rats (iv and oral gavage), plasma by LC/MS/MS
- Assay type: in vivo
- CONDITION LABEL: rat, male SD rats, po 5 mg/kg, read-out: AUCINF h * ng/ml
QUANTITY KIND: AUC(0-inf) (µg·h/mL)

Sample answers from the record:
>>> test_value("N#CC1(NC(=O)C2(NC(=O)c3cc4ccc(-c5ccc(-n6cncn6)c(OC(F)F)c5)cc4o3)CCC(F)(F)CC2)CC1 [Example 53]")
21.7
>>> test_value("N#CC1(NC(=O)C2(NC(=O)c3cc4ccc(-c5ccc(-n6ccnn6)cc5)cc4o3)CCC(F)(F)CC2)CC1 [Example 18]")
19.9
>>> test_value("CCOc1cc(-c2ccc3cc(C(=O)NC4(C(=O)NC5(C#N)CC5)CCC(F)(F)CC4)oc3c2)ccc1-n1cncn1 [Example 54]")
22.7

(a) N#CC1(NC(=O)C2(NC(=O)c3cc4ccc(-c5ccc(-n6cncn6)cc5)cc4o3)CCC(F)(F)CC2)CC1 [Example 12]
(b) Cc1cc(-c2ccc3cc(C(=O)NC4(C(=O)NC5(C#N)CC5)CCC(F)(F)CC4)oc3c2)ccc1-n1cncn1 [Example 43]
Which item exceeds the other in AUC(0-inf), a or b ? # answer = label of selected item
a

====

- ASSAY EXPLANATION: Pharmacokinetic test in SD rats (iv and oral gavage), plasma by LC/MS/MS
- Format: in vivo
- CONDITION LABEL: rat, male SD rats, po 5 mg/kg vs iv 1 mg/kg
QUANTITY KIND: bioavailability (%)

(I) CCOc1cc(-c2ccc3cc(C(=O)NC4(C(=O)NC5(C#N)CC5)CCC(F)(F)CC4)oc3c2)ccc1-n1cncn1
(II) N#CC1(NC(=O)C2(NC(=O)c3cc4ccc(-c5ccc(-n6cncn6)c(OC(F)F)c5)cc4o3)CCC(F)(F)CC2)CC1
Hi there! Just curious which has the higher bioavailability between I and II . // return label of chosen record
II

(P) N#CC1(NC(=O)C2(NC(=O)c3cc4ccc(-c5ccc(-n6cncn6)cc5)cc4o3)CCC(F)(F)CC2)CC1
(Q) N#CC1(NC(=O)C2(NC(=O)c3cc4ccc(-c5ccc(-n6ccnn6)cc5)cc4o3)CCC(F)(F)CC2)CC1
Between item P and item Q , which reported bioavailability is smaller? Answer by stating the label of the chosen item.
P
(P: 60.6%, Q: 98.6%)

====

- SYSTEM UNDER TEST: human cathepsin L (Homo sapiens)
- Sequence (P07711 114-333): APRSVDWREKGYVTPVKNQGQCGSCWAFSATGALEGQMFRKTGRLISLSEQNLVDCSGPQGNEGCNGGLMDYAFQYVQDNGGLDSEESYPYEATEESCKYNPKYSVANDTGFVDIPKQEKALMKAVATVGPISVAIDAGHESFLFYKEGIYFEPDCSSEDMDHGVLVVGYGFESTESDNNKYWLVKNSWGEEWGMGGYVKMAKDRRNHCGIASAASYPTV
pIC50: −log10 of the molar value.
Readings of pIC50 for the listed molecules

Please look at N#CC1(NC(=O)C2(NC(=O)c3cc4ccc(-c5csc(-n6cncn6)n5)cc4o3)CCC(F)(F)CC2)CC1 [Example 57] and tell me its recorded pIC50 on human cathepsin L (Homo sapiens).
< 5.00

====

- ASSAY EXPLANATION: Pharmacokinetic test in SD rats (iv and oral gavage), plasma by LC/MS/MS
- Assay type: in vivo
- CONDITION LABEL: rat, male SD rats, po 5 mg/kg, read-out: T1/2 h (converted)
QUANTITY KIND: half-life (h)

>>> test_value("CCOc1cc(-c2ccc3cc(C(=O)NC4(C(=O)NC5(C#N)CC5)CCC(F)(F)CC4)oc3c2)ccc1-n1cncn1")
5.06
>>> test_value("N#CC1(NC(=O)C2(NC(=O)c3cc4ccc(-c5ccc(-n6cncn6)cc5)cc4o3)CCC(F)(F)CC2)CC1")
6.14
>>> test_value("N#CC1(NC(=O)C2(NC(=O)c3cc4ccc(-c5ccc(-n6cncn6)c(OC(F)F)c5)cc4o3)CCC(F)(F)CC2)CC1")
4.66
>>> test_value("Cc1cc(-c2ccc3cc(C(=O)NC4(C(=O)NC5(C#N)CC5)CCC(F)(F)CC4)oc3c2)ccc1-n1cncn1")
5.84
>>> test_value("N#CC1(NC(=O)C2(NC(=O)c3cc4ccc(-c5ccc(-n6ccnn6)cc5)cc4o3)CCC(F)(F)CC2)CC1")
5.65
